Heads up, these compounds all have pKi values measured for Adenosine receptor A2a (Homo sapiens, UniProt P29274).
pKi: −log10 of the molar value.
ATTRIBUTE_MEASURED: pKi

>>> print(df.to_string())
                            chemical_smiles  endpoint_result
0  CCCOc1ccc(CCCn2ncc3c2nc(N)n2nc(-c4ccco4)nc32)cc1             7.93
1  Nc1nc2c(cnn2CCCc2ccc(OCCF)cc2)c2nc(-c3ccco3)nn12             7.91
2  CS(=O)(=O)OCCOc1ccc(CCCn2ncc3c2nc(N)n2nc(-c4ccco4)nc32)cc1             7.34
3  Nc1nc2c(cnn2CCCc2ccc(O/C=C/c3ccccc3)cc2)c2nc(-c3ccco3)nn12             6.51
